Just for reference, ChEMBL document CHEMBL3243978 is where these values come from.

organism: Rattus norvegicus; test: animal or person; type: functional
Description: Antiinflammatory activity in rat assessed as inhibition of carrageenan-induced foot edema at 30 mg/kg
MEASURED_QUANTITY: inhibition in vivo at 30 mg/kg
Lab note: write values as number then unit, every time.

Reported inhibition in vivo at 30 mg/kg ( Fc1cc(Cl)ccc1-c1nc2ncccc2o1 ) = 19%

Reported inhibition in vivo at 30 mg/kg ( O=[N+]([O-])c1cccc(-c2nc3ncccc3o2)c1 ) = 21%

Reported inhibition in vivo at 30 mg/kg ( Brc1ccccc1-c1nc2ncccc2o1 ) = 24%

---

Sequence of the target: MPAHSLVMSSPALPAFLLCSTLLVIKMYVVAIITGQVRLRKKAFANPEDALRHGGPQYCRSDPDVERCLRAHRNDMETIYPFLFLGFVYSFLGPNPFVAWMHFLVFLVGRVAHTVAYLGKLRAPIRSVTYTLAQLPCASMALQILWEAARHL
The label fulfilled is reserved for ED50 strictly under 10 µg/mL; not fulfilled covers values equal to or above it.

-- ask Is ED50 of CCCCC1C(=O)N(c2ccccc2)N(c2ccccc2)C1=O strictly below 10 µg/mL?
-- reply fulfilled

-- ask Is ED50 of Fc1cccc(F)c1-c1nc2ncccc2o1 strictly below 10 µg/mL?
-- reply not fulfilled

-- ask Is ED50 of CC(=O)Oc1ccccc1C(=O)O strictly below 10 µg/mL?
-- reply not fulfilled

-- ask Is ED50 of Fc1ccccc1-c1nc2ncccc2o1 strictly below 10 µg/mL?
-- reply fulfilled

-- ask Is ED50 of COc1ccc2c(c1)c(CC(=O)O)c(C)n2C(=O)c1ccc(Cl)cc1 strictly below 10 µg/mL?
-- reply fulfilled

-- ask Is ED50 of N#Cc1ccccc1-c1nc2cccnc2o1 strictly below 10 µg/mL?
-- reply not fulfilled

-- ask Is ED50 of N#Cc1ccccc1-c1nc2ncccc2o1 strictly below 10 µg/mL?
-- reply not fulfilled

-- ask Is ED50 of CC(C)Cc1ccc(C(C)C(=O)O)cc1 (stereo not drawn) strictly below 10 µg/mL?
-- reply fulfilled
